Target: Non-receptor tyrosine-protein kinase TYK2 (Homo sapiens)
Sequence (P29597 whole entry): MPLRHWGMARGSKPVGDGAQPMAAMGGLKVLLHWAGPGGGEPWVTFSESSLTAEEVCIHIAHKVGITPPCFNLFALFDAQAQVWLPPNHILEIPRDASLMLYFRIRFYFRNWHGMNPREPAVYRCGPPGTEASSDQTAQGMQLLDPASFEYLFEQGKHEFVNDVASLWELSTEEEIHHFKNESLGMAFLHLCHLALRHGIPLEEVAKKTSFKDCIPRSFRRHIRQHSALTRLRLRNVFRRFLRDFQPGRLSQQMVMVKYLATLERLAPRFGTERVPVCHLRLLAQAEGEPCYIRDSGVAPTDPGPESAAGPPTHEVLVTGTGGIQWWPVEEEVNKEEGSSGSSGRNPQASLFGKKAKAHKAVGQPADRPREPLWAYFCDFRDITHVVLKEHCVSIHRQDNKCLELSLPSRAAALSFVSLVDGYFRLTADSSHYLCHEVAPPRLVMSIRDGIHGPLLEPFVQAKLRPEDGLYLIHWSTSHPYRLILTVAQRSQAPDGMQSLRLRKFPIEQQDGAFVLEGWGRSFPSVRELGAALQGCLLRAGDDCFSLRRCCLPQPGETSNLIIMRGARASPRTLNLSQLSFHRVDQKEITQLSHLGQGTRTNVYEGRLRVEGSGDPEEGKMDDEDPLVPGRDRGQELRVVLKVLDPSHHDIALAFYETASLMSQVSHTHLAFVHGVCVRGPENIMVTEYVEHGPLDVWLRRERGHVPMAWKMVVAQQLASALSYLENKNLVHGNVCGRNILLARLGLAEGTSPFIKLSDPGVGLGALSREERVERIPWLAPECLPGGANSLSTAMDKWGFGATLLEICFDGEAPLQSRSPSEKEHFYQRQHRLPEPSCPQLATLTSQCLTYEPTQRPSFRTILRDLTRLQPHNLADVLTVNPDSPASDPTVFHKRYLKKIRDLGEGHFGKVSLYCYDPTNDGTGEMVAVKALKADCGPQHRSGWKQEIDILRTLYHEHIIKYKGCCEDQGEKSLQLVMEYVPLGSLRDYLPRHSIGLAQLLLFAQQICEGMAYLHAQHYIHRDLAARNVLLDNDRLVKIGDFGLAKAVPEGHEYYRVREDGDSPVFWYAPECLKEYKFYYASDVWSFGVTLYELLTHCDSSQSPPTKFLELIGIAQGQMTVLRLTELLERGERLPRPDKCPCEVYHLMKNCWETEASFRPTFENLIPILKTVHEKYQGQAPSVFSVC
Assay: Inhibition of TYK2 JH2 in human TF-1 cells assessed as reduction of IFNalpha induced STAT1 phosphorylation
Format: cell-based
measure: IC50 (nM)

Some solved cases for reference:
{"compound.smiles": "CCOc1cccc(Nc2cc(NC)n3ncc(C(=O)N[C@@H]4CCN(C)C4=O)c3n2)n1", "test.target": "Non-receptor tyrosine-protein kinase TYK2 (Homo sapiens)", "IC50 / nM": 38}
{"compound.smiles": "CNc1cc(Nc2ccccc2OC)nc2c(C(=O)N[C@@H]3CCN(C)C3=O)cnn12", "test.target": "Non-receptor tyrosine-protein kinase TYK2 (Homo sapiens)", "IC50 / nM": 8}

[A] CNc1cc(Nc2cccc3c2OCCC3)nc2c(C(=O)N[C@@H]3CCN(C)C3=O)cnn12
[B] CNc1cc(Nc2cccn(-c3ccccn3)c2=O)nc2c(C(=O)N[C@@H]3CCN(C)C3=O)cnn12
// query // task: argmin of IC50 over [ A , B ] Your answer should be the label of the entry you select.
// result A
(A: 7 nM, B: 112 nM)

Where do the numbers come from? From ChEMBL document CHEMBL5380830.
